Target: GPR6 (Homo sapiens)
Construct: expressed in transfected cells; host or cells: CHO cells
Assay: GPR6 antagonist functional cAMP assay (LANCE Ultra cAMP TR-FRET, CHO cells stably expressing GPR6)
Assay type: cell-based
Details: CHO cells stably expressing GPR6, cAMP assay
Protocol: Example 56. GPR6 and GPR3 Antagonist Functional cAMP Assay CHO cells stably expressing GPR6 or GPR3 receptors were dissociated from cell culture flasks and incubated for 2 h at 37° C. in a 10 cm dish in a humidified incubator. […] To measure cAMP levels, LANCE® Ultra cAMP assay (Perkin Elmer), a homogeneous time-resolved fluorescence resonance energy transfer (TR-FRET) immunoassay was used following manufacturer's recommendations. […] FRET values were reported as readings obtained at 665 nm. […]
pIC50: −log10 of the molar value.
Listing: pIC50 of selected compounds

A selection of reference data follows.
CCn1cc(-c2nc3c(nc2N2CCC(Oc4ccc(F)cc4F)CC2)CCN(C(=O)C(O)C(C)(C)O)C3)cn1 (stereo not shown) [Compound 521] ... 6.00 to 7.00
CC(=O)N1CCc2nc(N3CCN(Cc4cc(Cl)ccc4Cl)CC3)c(-c3ccc(F)c(N)n3)nc2C1 [Compound 580] ... > 7.00
CC(=O)N1CCc2nc(N3CCC(C(F)c4ccc(F)cc4F)CC3)c(-c3cnn(C)c3)nc2C1 (stereo not shown) [Compound 557] ... > 7.00
CC(=O)N1CCc2nc(N3CCN(Cc4cccc(=O)[nH]4)CC3)c(-c3cnn(C)c3)nc2C1 [Compound 530] ... ≤ 4.52
Cn1cc(-c2nc3cc(C(O)C(C)(C)O)ncc3nc2N2CCC(Oc3ccc(F)cc3F)CC2)cn1 (single isomer, unassigned) [Compound 561] ... > 7.00
Cn1cc(-c2nc3cc(C(=O)C(C)(C)O)ncc3nc2N2CCN(Cc3ccc(F)cc3F)CC2)cn1 [Compound 563] ... 6.00 to 7.00

Next, consider the following compound.
Query :: Report pIC50 for CC(C)(O)C(C)(O)c1cc2nc(N3CCN(Cc4ccc(F)cc4F)CC3)c(-c3cnn(CF)c3)nc2cn1 (stereo not shown) [Compound 607] please.
Result :: 6.00 to 7.00

----------
Target: GPR6 (Homo sapiens, UniProt P46095)
Construct: expressed in transfected cells; host or cells: CHO cells
Sequence (P46095 whole entry): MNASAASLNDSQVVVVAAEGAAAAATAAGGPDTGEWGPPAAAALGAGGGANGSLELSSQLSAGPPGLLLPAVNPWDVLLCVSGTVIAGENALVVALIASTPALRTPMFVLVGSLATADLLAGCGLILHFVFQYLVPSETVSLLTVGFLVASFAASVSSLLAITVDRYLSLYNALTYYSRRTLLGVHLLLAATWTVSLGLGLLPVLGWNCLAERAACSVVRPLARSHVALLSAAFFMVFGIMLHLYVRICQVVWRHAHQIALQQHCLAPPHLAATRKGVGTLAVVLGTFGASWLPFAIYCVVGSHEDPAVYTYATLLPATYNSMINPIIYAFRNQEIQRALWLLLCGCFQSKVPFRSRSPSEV
Test: GPR6 antagonist functional cAMP assay (LANCE Ultra cAMP TR-FRET, CHO cells stably expressing GPR6)
Assay type: cell-based
Settings: CHO cells stably expressing GPR6, cAMP assay (Example 24)
Listing: IC50 of selected molecules

A selection of reference data follows.
CC(=O)N1CCc2nc(N3CCC(Oc4ccc(F)cc4F)CC3)c(-c3cncc(OC(F)F)n3)nc2C1 ... 1 to 30 µM
Fc1ccc(OC2CCN(c3nc4cnccc4nc3-c3cnn(C4CCCCO4)c3)CC2)c(F)c1 (centres unmarked) ... 1 to 30 µM
CC(C)(C)OC(=O)N1CCCC1C(=O)N1CCc2nc(N3CCC(Oc4ccc(F)cc4F)CC3)c(-c3cnn(C4CCCCO4)c3)nc2C1 (centres unmarked) ... 1 to 30 µM
COc1cccc(-c2nc3cnccc3nc2N2CC3(CC(Oc4ccc(F)cc4F)C3)C2)n1 ... 1 to 30 µM
CN(C)C(=O)N1CCc2nc(N3CCC(Oc4ccc(F)cc4F)CC3)c(-c3cnn(C4CCCCO4)c3)nc2C1 (centres unmarked) ... 0.1 to 1 µM

Query :: Report IC50 for CC(C)S(=O)(=O)N1CCc2nc(N3CCC(Oc4ccc(F)cc4F)CC3)c(-c3cnn(C4CCCCO4)c3)nc2C1 (centres unmarked) please.
Result :: 0.1 to 1 µM

Query :: Report IC50 for CC(=O)N1CCc2nc(N3CCC(Oc4ccc(F)cc4F)CC3)c(-c3cccc(OC(F)(F)F)n3)nc2C1 please.
Result :: 0.1 to 1 µM

Query :: Report IC50 for O=C(C1COC1)N1CCc2nc(N3CCC(Oc4ccc(F)cc4F)CC3)c(-c3cnn(C4CCCCO4)c3)nc2C1 (centres unmarked) please.
Result :: 0.1 to 1 µM

Query :: Report IC50 for CCn1cc(-c2nc3c(nc2N2CCC(Oc4cc(Cl)ccc4Cl)CC2)CCN(C(=O)CO)C3)cn1 please.
Result :: 0.1 to 1 µM

Query :: Report IC50 for Cn1cc(-c2nc3cncc(Cl)c3nc2N2CCC(Oc3ccc(F)cc3F)CC2)cn1 please.
Result :: 1 to 30 µM

Query :: Report IC50 for CC(=O)N1CCc2nc(N3CCC(Oc4ccc(F)cc4F)CC3)c(-c3cnc[nH]3)nc2C1 please.
Result :: 1 to 30 µM

Query :: Report IC50 for CC(=O)N1CCc2nc(N3CCC(Oc4ccc(F)cc4C)CC3)c(-c3cnn(C)c3)nc2C1 please.
Result :: 1 to 30 µM

Query :: Report IC50 for CC(=O)N1CCc2nc(N3CCC(Oc4ccccc4F)CC3)c(-c3cnn(C)c3)nc2C1 please.
Result :: 0.1 to 1 µM

Query :: Report IC50 for CCn1cc(-c2nc3c(nc2N2CCC(Oc4ccc(F)cc4F)CC2)CCN(C(=O)C2COCCO2)C3)cn1 (centres unmarked) please.
Result :: < 0.1 µM

Query :: Report IC50 for COCC(O)c1cc2nc(N3CCC(Oc4ccc(F)cc4F)CC3)c(-c3cnn(C)c3)nc2cn1 (centres unmarked) please.
Result :: 0.1 to 1 µM

Query :: Report IC50 for CNC(=O)N1CCc2nc(N3CCC(Oc4ccc(F)cc4F)CC3)c(-c3cn[nH]c3)nc2C1 please.
Result :: 1 to 30 µM

Query :: Report IC50 for CC(=O)N1CCc2nc(N3CCC(Oc4ccc(F)cc4)CC3)c(-c3cnn(C)c3)nc2C1 please.
Result :: 1 to 30 µM

Query :: Report IC50 for Cn1cc(-c2nc3cnc(C(O)C4CC4)cc3nc2N2CCC(Oc3ccc(F)cc3F)CC2)cn1 (centres unmarked) please.
Result :: 1 to 30 µM

Query :: Report IC50 for CCS(=O)(=O)N1CCc2nc(N3CCC(Oc4ccc(F)cc4F)CC3)c(-c3cn[nH]c3)nc2C1 please.
Result :: 0.1 to 1 µM

Query :: Report IC50 for CCS(=O)(=O)N1CCc2nc(N3CCC(Oc4ccc(F)cc4F)CC3)c(-c3cnn(C4CCCCO4)c3)nc2C1 (centres unmarked) please.
Result :: 0.1 to 1 µM
